# System: Escherichia coli
# TEST PROTOCOL: Antibacterial activity against Escherichia coli MTCC 1089 after 24 hr by disk diffusion method
# Type: functional
Lab note: compare inhibition zone (IZ) against 10 mm. Equal or greater, write t. Smaller, write f.

Sample answers from the record:
STRUCTURE SMILES: O=c1cc(COc2cccc(OCc3cc(=O)oc4ccc(Cl)cc34)c2)c2cc(Cl)ccc2o1
CLASSIFICATION: t
//
STRUCTURE SMILES: Cc1ccc2oc(=O)cc(COc3cccc(O)c3)c2c1
CLASSIFICATION: f
//
STRUCTURE SMILES: CCN(CC)c1cccc(OCc2cc(=O)oc3ccc4ccccc4c23)c1
CLASSIFICATION: t

-- ask Reported inhibition zone (IZ) reaches at least 10 mm for CC(=O)Nc1cccc(OCc2cc(=O)oc3c2ccc2ccccc23)c1 ?
-- reply t

-- ask Given O=c1cc(COc2cccc(OCc3cc(=O)oc4ccc(Br)cc34)c2)c2cc(Br)ccc2o1 , state whether its inhibition zone (IZ) is at least 10 mm.
-- reply t

-- ask Check if inhibition zone (IZ) >= 10 mm (inclusive). Item: O=c1cc(COc2cccc(OCc3cc(=O)oc4c3ccc3ccccc34)c2)c2ccc3ccccc3c2o1
-- reply t

-- ask // inclusive: inhibition zone (IZ) at least 10 mm? input: Cc1ccc2c(COc3cccc(O)c3)cc(=O)oc2c1
-- reply f

* * *

# Test system: Aspergillus niger
# TEST PROTOCOL: Induction of Aspergillus niger DNA cleavage at 50 ug after 2 hr by agarose gel electrophoresis
Activity calls are given as the source filed them. The rule behind the calls is not given here.
Returns: one label drawn from active, inactive

STRUCTURE SMILES: CC(=O)Nc1cccc(OCc2cc(=O)oc3ccc(C)cc23)c1
CLASSIFICATION: inactive
//
STRUCTURE SMILES: CC(=O)Nc1cccc(OCc2cc(=O)oc3ccc(Cl)cc23)c1
CLASSIFICATION: active
//
STRUCTURE SMILES: O=c1cc(COc2cccc(OCc3cc(=O)oc4ccc(Cl)cc34)c2)c2cc(Cl)ccc2o1
CLASSIFICATION: active
//
STRUCTURE SMILES: COc1ccc2oc(=O)cc(COc3cccc(NC(C)=O)c3)c2c1
CLASSIFICATION: active
//
STRUCTURE SMILES: COc1ccc2oc(=O)cc(COc3cccc(O)c3)c2c1
CLASSIFICATION: active
//
STRUCTURE SMILES: CCN(CC)c1cccc(OCc2cc(=O)oc3cc(C)ccc23)c1
CLASSIFICATION: inactive
//
STRUCTURE SMILES: O=c1cc(COc2cccc(OCc3cc(=O)oc4ccc(Br)cc34)c2)c2cc(Br)ccc2o1
CLASSIFICATION: active
//
STRUCTURE SMILES: Cc1ccc2oc(=O)cc(COc3cccc(O)c3)c2c1
CLASSIFICATION: inactive
//
STRUCTURE SMILES: O=c1cc(COc2cccc(O)c2)c2cc(Br)ccc2o1
CLASSIFICATION: active
//
STRUCTURE SMILES: O=c1cc(COc2cccc(O)c2)c2ccc3ccccc3c2o1
CLASSIFICATION: inactive

-- ask Could you check what this test reported for CC(=O)Nc1cccc(OCc2cc(=O)oc3c2ccc2ccccc23)c1 ?
-- reply inactive

-- ask Identify the outcome logged in this assay for the compound shown: CC(=O)Nc1cccc(OCc2cc(=O)oc3ccc(Br)cc23)c1
-- reply active

-- ask What is the recorded call for this compound in the test? O=c1cc(COc2cccc(OCc3cc(=O)oc4c3ccc3ccccc34)c2)c2ccc3ccccc3c2o1
-- reply inactive

-- ask Check the results log: what was the call for O=c1cc(COc2cccc(O)c2)c2cc(Cl)ccc2o1 ?
-- reply active

-- ask Tell me the recorded outcome of this test for CC(=O)Nc1cccc(OCc2cc(=O)oc3cc(C)ccc23)c1 .
-- reply inactive

-- ask Call for entry CCN(CC)c1cccc(OCc2cc(=O)oc3ccc(OC)cc23)c1 :
-- reply active

-- ask Assay outcome for Cc1ccc2c(COc3cccc(OCc4cc(=O)oc5cc(C)ccc45)c3)cc(=O)oc2c1 : what was it?
-- reply inactive

* * *

# Tested on: Pseudomonas aeruginosa
# TEST PROTOCOL: Antibacterial activity against Pseudomonas aeruginosa MTCC 1034 after 24 hr by disk diffusion method
# Assay type: functional
# TEST PARAMETERS: Pseudomonas aeruginosa, MTCC 1034, 24 h
OUTCOME MEASURE: MIC
I'd appreciate it if you included the unit after the number.

Examples from the recorded data:
STRUCTURE SMILES: COc1ccc2oc(=O)cc(COc3cccc(OCc4cc(=O)oc5ccc(OC)cc45)c3)c2c1
OUTCOME MEASURE: MIC
READOUT VALUE: 6.25 µg/mL
--
STRUCTURE SMILES: CC(=O)Nc1cccc(OCc2cc(=O)oc3ccc(C)cc23)c1
OUTCOME MEASURE: MIC
READOUT VALUE: 12.5 µg/mL
--
STRUCTURE SMILES: O=c1cc(COc2cccc(O)c2)c2c(ccc3ccccc32)o1
OUTCOME MEASURE: MIC
READOUT VALUE: 12.5 µg/mL

-- ask Value wanted: MIC (Pseudomonas aeruginosa) of entry CCN(CC)c1cccc(OCc2cc(=O)oc3ccc(Cl)cc23)c1
-- reply 6.25 µg/mL

-- ask Give Pseudomonas aeruginosa MIC for Cc1ccc2oc(=O)cc(COc3cccc(OCc4cc(=O)oc5ccc(C)cc45)c3)c2c1
-- reply 25 µg/mL

* * *

Overview of reported inhibition zone (IZ) across a group of compounds:
# Tested on: Penicillium chrysogenum
# TEST PROTOCOL: Antifungal activity against Penicillium chrysogenum after 3 to 4 days by serial dilution method
# Assay type: functional
Answer in mm, number only, no unit symbol.

Example results:
STRUCTURE SMILES: O=c1cc(COc2cccc(O)c2)c2c(ccc3ccccc32)o1
READOUT VALUE: 16

STRUCTURE SMILES: COc1ccc2oc(=O)cc(COc3cccc(OCc4cc(=O)oc5ccc(OC)cc45)c3)c2c1
READOUT VALUE: 17

STRUCTURE SMILES: Cc1ccc2c(COc3cccc(OCc4cc(=O)oc5cc(C)ccc45)c3)cc(=O)oc2c1
READOUT VALUE: 15

STRUCTURE SMILES: COc1ccc2oc(=O)cc(COc3cccc(O)c3)c2c1
READOUT VALUE: 20

STRUCTURE SMILES: COc1ccc2oc(=O)cc(COc3cccc(NC(C)=O)c3)c2c1
READOUT VALUE: 20

STRUCTURE SMILES: O=c1cc(COc2cccc(O)c2)c2ccc3ccccc3c2o1
READOUT VALUE: 16

-- ask # get_value(readout= inhibition zone (IZ), system= Penicillium chrysogenum) for CC(=O)Nc1cccc(OCc2cc(=O)oc3ccc(Cl)cc23)c1
-- reply 23

-- ask Lab note: need inhibition zone (IZ) with Penicillium chrysogenum for entry Cc1ccc2c(COc3cccc(O)c3)cc(=O)oc2c1 , please look it up.
-- reply 18

-- ask GET /values?readout=inhibition zone (IZ)&system=Penicillium chrysogenum&item= CCN(CC)c1cccc(OCc2cc(=O)oc3ccc(C)cc23)c1
-- reply 17

-- ask // map CC(=O)Nc1cccc(OCc2cc(=O)oc3ccc(C)cc23)c1 to recorded inhibition zone (IZ) (system: Penicillium chrysogenum)
-- reply 19

* * *

Measured MIC, listed per entry for reference.
# System: Bacillus subtilis
# TEST PROTOCOL: Antibacterial activity against Bacillus subtilis MTCC 297 after 24 hr by disk diffusion method
# Type: functional
# TEST PARAMETERS: Bacillus subtilis, MTCC 297, 24 h
Quick note: give the figure in µg/mL, leave out the unit.

// below: answered compounds
STRUCTURE SMILES: COc1ccc2oc(=O)cc(COc3cccc(NC(C)=O)c3)c2c1
U: µg/mL
MIC: 6.25

STRUCTURE SMILES: CCN(CC)c1cccc(OCc2cc(=O)oc3cc(C)ccc23)c1
U: µg/mL
MIC: 12.5

STRUCTURE SMILES: CC(=O)Nc1cccc(OCc2cc(=O)oc3cc(C)ccc23)c1
U: µg/mL
MIC: 12.5

STRUCTURE SMILES: O=c1cc(COc2cccc(O)c2)c2ccc3ccccc3c2o1
U: µg/mL
MIC: 25

STRUCTURE SMILES: CC(=O)Nc1cccc(OCc2cc(=O)oc3ccc4ccccc4c23)c1
U: µg/mL
MIC: 25

-- ask Could you tell me which MIC is on file for O=c1cc(COc2cccc(OCc3cc(=O)oc4ccc(Br)cc34)c2)c2cc(Br)ccc2o1 ?
-- reply 6.25

-- ask // MIC lookup, key: COc1ccc2oc(=O)cc(COc3cccc(O)c3)c2c1
-- reply 6.25

-- ask // query MIC value for entry O=c1cc(COc2cccc(O)c2)c2cc(Br)ccc2o1
-- reply 6.25

-- ask If you can, please state the reported MIC value of CCN(CC)c1cccc(OCc2cc(=O)oc3ccc(C)cc23)c1 .
-- reply 12.5
